Hey, just so you know, these numbers are from patent US10947242B2.

molecular target: Human recombinant PDE3A (hPDE3A) (Homo sapiens, UniProt Q14432); construct: purchased Scottish Biomedical; host or cells: Sf9 insect cells; assay: In vitro assay PDE3A (SPA, 3H-cAMP hydrolysis); assay type: biochemical; settings: read-out: hPDE3B Emax; read-out: Emax;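 also: the method names PDE3A and the table heading PDE3B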
Sequence (Q14432 whole entry): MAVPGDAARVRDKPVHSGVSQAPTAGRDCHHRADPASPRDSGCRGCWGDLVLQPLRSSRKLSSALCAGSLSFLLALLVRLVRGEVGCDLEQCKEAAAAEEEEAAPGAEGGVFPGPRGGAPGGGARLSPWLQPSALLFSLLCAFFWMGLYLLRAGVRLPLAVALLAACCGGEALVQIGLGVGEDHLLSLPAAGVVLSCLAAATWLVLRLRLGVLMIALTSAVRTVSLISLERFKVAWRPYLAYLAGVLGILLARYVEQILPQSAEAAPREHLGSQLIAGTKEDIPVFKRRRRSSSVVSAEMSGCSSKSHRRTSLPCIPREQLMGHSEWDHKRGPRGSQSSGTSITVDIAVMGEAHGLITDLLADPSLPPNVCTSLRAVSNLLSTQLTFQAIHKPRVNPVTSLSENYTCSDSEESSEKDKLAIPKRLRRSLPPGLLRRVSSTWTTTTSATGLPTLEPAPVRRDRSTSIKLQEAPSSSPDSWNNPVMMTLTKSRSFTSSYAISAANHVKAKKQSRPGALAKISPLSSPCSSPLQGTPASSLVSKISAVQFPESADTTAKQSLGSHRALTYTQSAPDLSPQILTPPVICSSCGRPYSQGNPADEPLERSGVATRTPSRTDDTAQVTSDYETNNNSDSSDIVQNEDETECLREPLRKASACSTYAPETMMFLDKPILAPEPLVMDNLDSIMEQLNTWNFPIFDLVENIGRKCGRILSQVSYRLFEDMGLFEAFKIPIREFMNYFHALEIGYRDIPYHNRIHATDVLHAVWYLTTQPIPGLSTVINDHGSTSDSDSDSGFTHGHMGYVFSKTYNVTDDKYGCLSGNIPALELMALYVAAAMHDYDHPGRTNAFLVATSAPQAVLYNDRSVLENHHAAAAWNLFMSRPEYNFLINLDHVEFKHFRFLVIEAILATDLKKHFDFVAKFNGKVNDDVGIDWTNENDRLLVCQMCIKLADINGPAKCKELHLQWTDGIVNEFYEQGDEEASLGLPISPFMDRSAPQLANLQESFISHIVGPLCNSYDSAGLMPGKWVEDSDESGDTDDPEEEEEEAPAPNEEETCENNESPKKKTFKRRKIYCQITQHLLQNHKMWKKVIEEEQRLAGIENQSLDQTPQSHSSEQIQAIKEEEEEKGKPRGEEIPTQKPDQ
metric name: Emax
Please report the result as a number followed by the unit.

// Emax lookup, key: Cc1csc(C(=O)N2CCC[C@](C)(c3cc(C(F)F)nc4ncnn34)C2)c1 (single isomer, unassigned) [Compound 208]
30%

Query Cc1coc2ccc(C(=O)N3CC[C@@H](C)[C@H](c4cc(C(F)F)nc5ncnn45)C3)cc12 [Compound 92] next
88%

Query Cc1cc(C(=O)N2CC[C@@H](C)[C@H](c3cc(C(F)F)nc4ncnn34)C2)c(F)c(C)n1 [Compound 70] next
66%

Query Cc1cc([C@@H]2CN(C(=O)c3cc(C4CC4)ncc3C(F)(F)F)CC[C@H]2C)n2ncnc2n1 [Compound 283] next
38%

Query Cc1cc(C(=O)N2[C@H]3CC[C@H](c4cc(C(F)F)nc5ncnn45)[C@@H]2CC3)cc(C)c1F [Compound 346] next
68%

Query C/C(=C\c1ccc(F)cc1)C(=O)N1[C@H]2CC[C@H](c3cc(C(F)F)nc4ncnn34)[C@@H]1CC2 [Compound 370] next
87%

Query Cc1cc(C(=O)N2[C@H]3CC[C@@H]2[C@H](c2cc(C(F)F)nc4ncnn24)CC3)cc(C(F)(F)F)n1 [Compound 285] next
21%

Query CCCC[C@H]1CCN(C(=O)c2cc(C)nc(C)c2)C[C@@H]1c1cc(C(F)F)nc2ncnn12 (single isomer, unassigned) [Compound 46] next
5%

Query COc1cc(C(=O)N2CC[C@@H](C)[C@H](c3cc(C)nc4ncnn34)C2)c(F)cn1 [Compound 225] next
83%

Query COc1cc(C(=O)N2CC[C@@H](C)[C@H](c3cc(C(F)F)nc4ncnn34)C2)cc(Cl)n1 [Compound 108] next
80%

Query Cc1cc(C(=O)N2CC[C@H](C)[C@@](F)(c3cc(C(F)F)nc4ncnn34)C2)cc(C2CC2)n1 [Compound 24a] next
31%

Query C[C@@H]1CCN(C(=O)c2ccc(O)c(C#N)c2)C[C@H]1c1cc(C(F)F)nc2ncnn12 [Compound 231] next
57%

Query C[C@@H]1CCN(C(=O)c2cccnc2N)C[C@H]1c1cc(C(F)F)nc2ncnn12 [Compound 150] next
22%

Query COc1cc(C(=O)N2CC[C@@H](C)[C@H](c3cc(C(F)F)nc4ncnn34)C2)c(F)c(C)n1 [Compound 398] next
67%

Query COc1nc(C)cc(C(=O)N2CC[C@@H](C)[C@H](c3cc(C(F)F)nc4ncnn34)C2)c1F [Compound 282] next
88%

---

molecular target: Human recombinant PDE2A (hPDE2A) (Homo sapiens, UniProt O00408); construct: His tag (inferred from metal chelate purification); made in house; host or cells: Sf9 insect cells (baculovirus); assay: In vitro assay PDE2A (SPA, 3H-cGMP hydrolysis); type: biochemical; details: read-out: hPDE2A Emax
Sequence (O00408 whole entry): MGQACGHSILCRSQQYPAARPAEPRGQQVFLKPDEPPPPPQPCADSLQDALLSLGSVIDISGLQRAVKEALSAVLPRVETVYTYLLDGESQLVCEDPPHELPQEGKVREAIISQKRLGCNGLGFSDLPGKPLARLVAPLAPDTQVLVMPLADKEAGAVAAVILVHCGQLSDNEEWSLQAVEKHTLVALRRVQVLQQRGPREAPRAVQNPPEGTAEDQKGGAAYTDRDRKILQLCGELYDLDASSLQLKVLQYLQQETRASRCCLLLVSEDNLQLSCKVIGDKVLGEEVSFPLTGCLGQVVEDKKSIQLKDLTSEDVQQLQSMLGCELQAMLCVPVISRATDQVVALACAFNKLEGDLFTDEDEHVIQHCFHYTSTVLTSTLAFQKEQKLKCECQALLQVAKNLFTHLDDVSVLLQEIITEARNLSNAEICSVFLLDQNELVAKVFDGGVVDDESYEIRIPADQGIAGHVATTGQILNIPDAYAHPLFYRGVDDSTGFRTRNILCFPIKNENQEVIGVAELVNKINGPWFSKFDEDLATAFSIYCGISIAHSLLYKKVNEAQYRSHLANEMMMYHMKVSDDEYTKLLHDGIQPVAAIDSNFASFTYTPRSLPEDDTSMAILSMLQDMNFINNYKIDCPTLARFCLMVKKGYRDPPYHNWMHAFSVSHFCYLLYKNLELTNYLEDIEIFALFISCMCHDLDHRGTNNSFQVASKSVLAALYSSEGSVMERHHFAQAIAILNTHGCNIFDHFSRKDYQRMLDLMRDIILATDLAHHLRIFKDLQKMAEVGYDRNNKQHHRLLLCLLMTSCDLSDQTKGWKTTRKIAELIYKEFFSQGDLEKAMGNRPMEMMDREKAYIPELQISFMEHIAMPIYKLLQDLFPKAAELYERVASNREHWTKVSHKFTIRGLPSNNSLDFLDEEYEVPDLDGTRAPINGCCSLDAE
metric name: Emax (%)
Give just the numeric value; % need not be written.

Please tell me: Emax of C[C@@H]1CCN(C(=O)c2ccc(C3CC3)c(F)c2)C[C@H]1c1cc(C(F)F)nc2ncnn12 [Compound 103] , system Human recombinant PDE2A (hPDE2A) (Homo sapiens, UniProt O00408)?
99

Query C[C@@H]1CCN(C(=O)c2ccc3ncccc3c2)C[C@H]1c1cc(C(F)F)nc2ncnn12 [Compound 322] next
100

Query COc1cc(C(=O)N2CC[C@@H](C)[C@H](c3cc(C(F)F)nc4ncnn34)C2)c(F)cn1 [Compound 36] next
100

Query C[C@]1(c2cc(C(F)F)nc3ncnn23)CCCN(C(=O)c2ccc3nccn3c2)C1 (single isomer, unassigned) [Compound 212] next
61

Query Cn1ccc2cc(C(=O)N3[C@H]4CC[C@H](c5cc(C(F)F)nc6ncnn56)[C@@H]3CC4)ncc21 [Compound 382] next
99

Query C[C@@H]1CCN(C(=O)c2ccc(C(C)(C)C)o2)C[C@H]1c1cc(C(F)F)nc2ncnn12 [Compound 136] next
101

Query Cc1cc(C(=O)N2CC[C@@H](C)[C@](F)(c3cc(C(F)F)nc4ncnn34)C2)cc(C)n1 [Compound 82] next
101

Query Cc1nc2ccc(C(=O)N3[C@H]4CC[C@H](c5cc(C(F)F)nc6ncnn56)[C@@H]3CC4)cc2s1 [Compound 368] next
101

Query Cc1cc(C(=O)N2CC[C@@H](C)[C@H](c3cc(C(F)F)nc4ncnn34)C2)c(C)cn1 [Compound 32] next
100

Query Cc1nc(C(=O)N2CC[C@@H](C)[C@H](c3cc(C(F)F)nc4ncnn34)C2)c(C)o1 [Compound 252] next
96

Query C[C@@H]1CCN(C(=O)c2cnn(C)c2)C[C@H]1c1cc(C(F)F)nc2ncnn12 [Compound 177] next
99

Query O=C(c1ccc2ncsc2c1)N1[C@H]2CC[C@H](c3cc(C(F)F)nc4ncnn34)[C@@H]1CC2 [Compound 25a] next
100

Query Cc1cc([C@@H]2CN(C(=O)c3cc(C4CC4)ncc3F)CC[C@H]2C)n2ncnc2n1 [Compound 224] next
100

Query Cc1cc(C(=O)N2CC[C@@H](C)[C@@](F)(c3cc(C(F)F)nc4ncnn34)C2)cc(C)n1 [Compound 81] next
59

Query Cc1cnc(Cl)cc1C(=O)N1CC[C@@H](C)[C@H](c2cc(C(F)F)nc3ncnn23)C1 [Compound 27] next
100
